biological target: Substance-P receptor (Homo sapiens); assay: Compound was evaluated for the inhibition of binding of [3H]SP in human IM-9 cells
Sequence (P25103 whole entry): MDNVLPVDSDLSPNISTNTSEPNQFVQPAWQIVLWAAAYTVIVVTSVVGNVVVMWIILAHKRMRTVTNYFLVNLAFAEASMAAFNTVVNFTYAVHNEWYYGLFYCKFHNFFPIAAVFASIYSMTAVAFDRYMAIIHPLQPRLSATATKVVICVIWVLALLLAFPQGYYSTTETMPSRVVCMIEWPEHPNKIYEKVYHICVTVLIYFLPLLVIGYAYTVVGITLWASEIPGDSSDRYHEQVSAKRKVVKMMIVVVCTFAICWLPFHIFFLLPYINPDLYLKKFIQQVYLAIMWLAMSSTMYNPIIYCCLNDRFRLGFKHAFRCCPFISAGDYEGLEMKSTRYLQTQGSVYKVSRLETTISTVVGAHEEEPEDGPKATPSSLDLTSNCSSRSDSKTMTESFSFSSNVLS
IC50 values by entry
Could you give me the number in nM? Just the number is fine.

# example entries with known answers
COc1ccccc1CN[C@H]1C2CCCN(CC2)[C@H]1C(c1ccc(F)cc1)c1ccc(F)cc1 (some centres undefined) : 310
Clc1ccccc1CN[C@H]1C2CCCN(CC2)[C@H]1C(c1ccccc1)c1ccccc1 (some centres undefined) : 560
COc1ccc(CN[C@H]2C3CCCN(CC3)[C@H]2C(c2ccccc2)c2ccccc2)c(OC)c1 (some centres undefined) : 86.3

What measured IC50 is associated with COc1ccccc1CN[C@H]1C2CCCN(CC2)[C@H]1C(c1ccccc1)c1ccccc1 (some centres undefined) on Substance-P receptor (Homo sapiens)? 34.3
